Test: inhibition of 3D7 malaria parasite growth – strain 3D7 (AID 2306);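 further: 0% = DMSO wells and 100% = chloroquine plus artemisinin control wells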
Settings: P. falciparum 3D7 erythrocytic growth, LDH absorbance, 72 h; at 2 µM; stronger effect = higher value
attributeMeasured: growth inhibition (%)
Use % as the unit, but write only the number.

Cc1ccc(F)c(C(=O)Nc2cccc(-c3nn4ccccc4c3-c3ccnc(Nc4cccc(F)c4)n3)c2)c1F; 98
CCN(CC)CCOc1ccc(NC(=O)c2oc3ccccc3c2C=Cc2ccccc2)cc1; 98
COc1ccc(CNCc2cccc(-c3cccc(-c4nc5ccccc5[nH]4)c3)c2)cc1; 102
O=C(Cc1ccc(Cl)cc1)NC1CCN(c2ccnc3cc(Cl)ccc23)C1 (stereo not given); 82
Cc1nc(-c2cccc(Nc3nccc(NCC(O)c4ccc(C(F)(F)F)cc4)n3)c2)cs1 (stereo not given); 100
CN1CCN(c2cc(-c3ccncc3)nc(-c3cccnc3)n2)CC1; 101
FC(F)(F)c1cccc(CNC2CCN(CC3CCCCC3)CC2)c1; 101
COc1ccc2nccc([C@@H](O)CN3CCC(NC(=O)c4ccc(OC)c(N)c4)CC3)c2c1; 93
COc1ccc2nccc(NN=Cc3ccccc3[N+](=O)[O-])c2c1; 100

// switching to the query compound
Query: What value of growth inhibition has been recorded for this entry: c1cc(-c2ccc(CN3CCN(c4ccncc4)CC3)cc2)cc(-c2nc3ccccc3[nH]2)c1
Response: 101

====

In this section, each of the compounds is paired with its reported growth inhibition.
Assay: antimalarial activity against Dd2 strain (AID 2302);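 further: 0% = DMSO untreated growth and 100% = chloroquine plus artemisinin killed control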
Conditions: P. falciparum Dd2 in RBCs, LDH growth readout, 72 h; at 2 µM; stronger effect = higher value
The figure you give is taken to be in %; do not add the unit.

CCN(CCCN1CCCCC1)c1cc(C)nc(Nc2ccc(C)cc2Br)n1; 27
COc1cccc(NC(=O)[C@H](C)n2c(=O)[nH]c3ccccc3c2=O)c1; 92
O=C(/C=C/c1ccc(Cl)c(Cl)c1)NCCCCCN1CCCN(C(=S)Nc2cccc(Cl)c2)CC1; 7
O=C(Nc1ccc(Oc2ccccc2)cc1)N1CCC(CCN2CCC(c3c[nH]c4ccccc34)CC2)CC1; 36
NC(=O)c1ccsc1NC(=O)CNC(c1ccc(F)cc1)c1cccs1 (stereo not given); 71
O=C(O)/C=C/c1cccc(F)c1F; 1
CC(C)(Oc1ccc(Cl)cc1)C(=O)NCCC1CCN(CCCCCNC(=O)/C=C/c2ccc(Cl)c(Cl)c2)CC1; 37
O=C(c1cc2cccc([N+](=O)[O-])c2[nH]1)N1CCC(CCN2CCC(c3c[nH]c4ccccc34)CC2)CC1; 24
CN1CCN(c2ccnc3ccc(NC(=O)Nc4cccc(C#N)c4)cc23)CC1; 96
Cc1[nH]c2ccccc2c1C(=O)CSc1nn(-c2ccccc2)c(=S)s1; 99

Query: Which measured growth inhibition value corresponds to O=C(/C=C/c1ccc(Cl)c(Cl)c1)NCCCCCN1CCC(NC(=O)Nc2ccc(Cl)cc2F)CC1 ?
Response: 40

Query: Would you mind telling me what growth inhibition value was observed for COc1ccc2nccc(N3CCN(CCNCc4ccc5c(n4)NC(=O)CO5)CC3)c2n1 ?
Response: 12

Query: Please report the recorded growth inhibition for c1cc(CN2CCN(c3ccncc3)CC2)cc(-c2cccc(-c3nc4ccccc4[nH]3)c2)c1 .
Response: 98

====

Assay: antimalarial activity against Dd2 strain (AID 2302);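 further: 0% = DMSO untreated growth and 100% = chloroquine plus artemisinin killed control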
Details: P. falciparum Dd2 in RBCs, LDH growth readout, 72 h; at 2 µM; stronger effect = higher value
attributeMeasured: growth inhibition (%)
Reply with just the number (in %).

Cc1ccc(CN2CCC(C(=O)Nc3ccc(-c4cc5ccccc5[nH]4)cc3)CC2)o1; 40
Cc1ccccc1-c1cc(=O)c2cc(NC(=O)c3cccs3)ccc2o1; 95
O=[N+]([O-])c1cccc(CNC2CCN(Cc3ccc4ccccc4c3)CC2)c1; 22

Query: Value lookup for growth inhibition; key = CN1CCC(N2CCN(c3ccc4c(=O)nc(CCc5cccc(F)c5F)n(CC(=O)N(C)Cc5ccc(-c6ccc(C(F)(F)F)cc6)cc5)c4n3)CC2)CC1
Response: 99

Query: // query growth inhibition value for entry CC(C)(C)c1ccc(OC(=O)c2ccc(NC(=O)N[C@@H](Cc3ccc(O)cc3)C(=O)NC3CCN(Cc4ccc(O)cc4)C3)cc2)cc1 (some centres undefined)
Response: 67

Query: // query growth inhibition value for entry COc1cc2nccc(Nc3cc(C)cc(O)c3)c2cc1OC
Response: -2

Query: Please give the measured growth inhibition for this compound: Cc1ccccc1CNc1noc(-c2c(-c3ccccc3)noc2C)n1
Response: 70

Query: Look up growth inhibition: O=c1cc(NCCCNCc2[nH]c3cc(Cl)cc(Cl)c3c2Cn2cccn2)[nH]c2ccccc12
Response: 2

Query: growth inhibition; subject: Cn1cnc2c(Nc3ccncc3)nc(-c3ccc(OC(F)(F)F)cc3)nc21
Response: 65

====

Biological target: Calcium-dependent protein kinase 1 (Plasmodium falciparum (isolate 3D7)) (UniProt P62344)
Sequence (P62344 whole entry, looked up): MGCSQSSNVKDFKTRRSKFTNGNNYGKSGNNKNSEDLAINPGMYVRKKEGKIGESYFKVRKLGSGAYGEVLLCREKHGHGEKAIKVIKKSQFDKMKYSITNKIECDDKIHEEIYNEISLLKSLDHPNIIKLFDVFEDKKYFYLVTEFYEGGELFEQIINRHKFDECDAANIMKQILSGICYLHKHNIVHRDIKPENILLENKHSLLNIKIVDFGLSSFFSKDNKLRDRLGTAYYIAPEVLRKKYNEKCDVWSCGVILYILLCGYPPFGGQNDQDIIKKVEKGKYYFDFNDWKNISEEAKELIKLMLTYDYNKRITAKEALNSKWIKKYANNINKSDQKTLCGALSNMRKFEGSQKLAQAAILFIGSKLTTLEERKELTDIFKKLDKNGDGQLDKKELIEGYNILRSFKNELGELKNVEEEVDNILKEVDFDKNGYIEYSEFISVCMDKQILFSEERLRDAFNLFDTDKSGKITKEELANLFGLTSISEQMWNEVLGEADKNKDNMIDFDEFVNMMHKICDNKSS
Assay: PfCDPK1 kinase inhibitors, biochemical, TCAMS library (AID 1159585);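 further: inhibitors leave more ATP so luminescence rises with inhibition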
Conditions: recombinant PfCDPK1, Kinase-Glo ATP depletion luminescence
Entries with a potency or affinity are not part of this list. The source made the active and inactive calls. No cut-off is given here; in the data, nearly all actives have IC50 up to about 0.98 µM.
attributeMeasured: outcome

Solved entries:
CC(O)C1CCCCN1C(=O)c1cccc(-c2cccc(-c3nc4ccc(F)cc4[nH]3)c2)c1 (stereo unspecified); inactive
Cc1cccc2[nH]c(-c3cccc(-c4cccc(CN5CCN(c6ccc(C#N)cn6)CC5)c4)c3)nc12; inactive
CCn1cc(C=C2Oc3c(ccc(O)c3CN3CCCCC3)C2=O)c2cc(OC)ccc21; inactive
Cc1nccn1CCNC(=O)CN1CCC2(CCC1=O)CC(=O)c1ccccc1O2 (stereo unspecified); inactive
Clc1ccc(-c2cc(-c3csc(Nc4ccncc4)n3)on2)cc1; inactive

Query: What does the record list as outcome for CC(Nc1cc(-c2ccccn2)nc(-c2ccccn2)n1)c1ccccc1 (stereo unspecified) ?
Response: inactive

Query: What does the record list as outcome for COc1ccc(Br)cc1/C=C/C(=O)Nc1cccc(C2CCCN(C)C2)c1 (stereo unspecified) ?
Response: inactive

Query: Item under review: CNCCNCc1ccc(-c2ccc(-c3nc4ccc(F)cc4[nH]3)cc2)cc1 . Reported outcome?
Response: inactive

====

Readings of inhibition for the listed compounds
Target: L-lactate dehydrogenase (Plasmodium falciparum (isolate CDC / Honduras)) (UniProt Q27743)
Sequence (Q27743 whole entry, looked up): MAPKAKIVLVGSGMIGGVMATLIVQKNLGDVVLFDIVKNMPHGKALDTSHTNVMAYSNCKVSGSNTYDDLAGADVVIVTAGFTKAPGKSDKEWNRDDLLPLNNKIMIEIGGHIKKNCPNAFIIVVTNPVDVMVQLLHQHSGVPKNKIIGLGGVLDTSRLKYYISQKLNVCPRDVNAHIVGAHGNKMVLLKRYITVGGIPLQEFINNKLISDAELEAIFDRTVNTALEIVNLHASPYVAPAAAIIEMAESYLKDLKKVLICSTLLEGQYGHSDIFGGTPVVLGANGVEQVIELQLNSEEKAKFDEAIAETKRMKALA
Assay: PfLDH activity inhibition – cell lysate, 3D7 strain, counter-screen for P. falciparum growth inhibition project (AID 2304);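 further: 0% = vehicle and 100% = reference inhibitor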
Settings: P. falciparum 3D7 crude extract, LDH APAD/NBT absorbance; at 2 µM; stronger effect = higher value
Calls of active or inactive are those of the source. No rule for the calls is given here.

Query: What value of measured inhibition is listed for Fc1ccc2nc(-c3ccc(-c4ccc(CNCCN5CCNCC5)cc4)cc3)[nH]c2c1 ?
Response: -3% (inactive)

Query: Returns the measured inhibition for the input compound. Input: OC1CCN(c2cc(-c3ccccn3)nc(-c3ccccn3)n2)CC1
Response: -2% (inactive)

Query: So what does the record say about inhibition for Fc1ccc(C=NNc2ccnc3ccc(C(F)(F)F)cc23)cc1 ?
Response: 4% (inactive)

Query: Which inhibition reading was recorded for the compound O=c1cc(NCCCNCc2csc(Br)c2Sc2ccc(Cl)cc2)[nH]c2ccccc12 ?
Response: 7% (inactive)

Query: Form field: reported inhibition of COc1ccc(C(O)CNC(C)CCc2ccccc2)cc1C(F)(F)F (stereo not given)
Response: 1% (inactive)

Query: // inhibition lookup, key: COc1cccc(Nc2nnc(SCC(=O)NNC(=O)c3ccccn3)s2)c1
Response: -1% (inactive)

====

Listed below: inhibition values for each entry.
Target: L-lactate dehydrogenase (Plasmodium falciparum (isolate CDC / Honduras)) (UniProt Q27743)
Test: PfLDH activity inhibition – cell lysate, 3D7 strain, counter-screen for P. falciparum growth inhibition project (AID 2304);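 further: 0% = vehicle and 100% = reference inhibitor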
Conditions: P. falciparum 3D7 crude extract, LDH APAD/NBT absorbance; at 2 µM; stronger effect = higher value
Give your result in % as a bare value.

NC1CCCN(Cc2cccc(-c3ccc(-c4nc5ccccc5[nH]4)cc3)c2)C1 (stereo not given); -6
O=C(/C=C/c1ccc(Cl)c(Cl)c1)NC1CCN(Cc2ccc(O)cc2)C1 (stereo not given); -1
CC(C)NCc1ccc(-c2cccc(CN3CCC(c4ccccc4)CC3)c2)c(C(=O)NCC2CCCCC2)c1; -5
COc1cc(Cc2cnc(N)nc2N)cc(OC)c1OCCCCC(=O)O; -4
Nc1c2c(nc3ccc(NC(=O)CCCCCCc4ccccc4)cc13)CCCC2; 4

Query: Consider the compound shown here: Cc1cccc2[nH]c(-c3ccc(-c4cccc(NC(=O)C(C)CN(C)C)c4)s3)nc12 (stereo not given) What is its recorded inhibition?
Response: 0

Query: Need inhibition, item COc1ccc(N2CCN(CCCCNC(=O)c3ccc(NC(=O)c4cc(Cl)cc(Cl)c4)cc3)CC2)c(OC)c1
Response: 2

====

Recorded measurements of inhibition, one per entry
Target: L-lactate dehydrogenase (Plasmodium falciparum (isolate CDC / Honduras)) (UniProt Q27743)
Assay: PfLDH activity inhibition – cell lysate, 3D7 strain, counter-screen for P. falciparum growth inhibition project (AID 2304);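 further: 0% = vehicle and 100% = reference inhibitor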
Conditions: P. falciparum 3D7 crude extract, LDH APAD/NBT absorbance; at 2 µM; stronger effect = higher value
Dear colleague, please return just the value in %, with no unit written.

CCn1nc(C(=O)NC2CCOc3ccccc32)c2ccccc2c1=O (centres undefined); 0

Query: inhibition for CCOC(=O)c1c(-c2ccccc2)[nH]c2c(sc3ccccc32)c1=O ?
Response: -5

Query: Can you share its inhibition? I mean this compound: CN(C(=O)c1snnc1-c1ccccc1)C1CCN(CCCCCNC(=O)/C=C/c2ccc(Cl)c(Cl)c2)CC1
Response: 4

Query: Could you share which inhibition value was measured for COc1cc(CN2CCC(N3CCc4cc(NC(=O)c5cc(C)on5)ccc43)C2)ccc1F (centres undefined) ?
Response: 0

Query: Field request: inhibition | item: COc1ccc(Cc2cnc3nc(N)nc(N)c3c2C)cc1
Response: -2

Query: Fill in: inhibition of COc1ccc(CNC2CCN(C)CC2)cc1-c1ccc(S(=O)(=O)NCC2CCCO2)s1 (centres undefined) is ___
Response: 5

Query: inhibition; subject: O=C(c1cc2nc3c(c(C(F)(F)F)n2n1)CCc1ccccc1-3)N1CCN2CCCC2C1 (centres undefined)
Response: 0

Query: So what's the measured inhibition for this one? CCCC1(NC[C@@H](O)[C@H](Cc2ccccc2)NC(=O)c2cc(NCC)cc(N3CCCCS3(=O)=O)c2)CCCCC1
Response: -4

Query: Quick check: inhibition of c1cncc(CCNCc2ccc(-c3cccc(-c4nc5ccccc5[nH]4)c3)cc2)c1 ?
Response: -2

// data source = PubChem BioAssay
